Listing of entries alongside the reported AIRE transcriptional activation functional score.
B1: library; numbered along this chain (parent)
chain: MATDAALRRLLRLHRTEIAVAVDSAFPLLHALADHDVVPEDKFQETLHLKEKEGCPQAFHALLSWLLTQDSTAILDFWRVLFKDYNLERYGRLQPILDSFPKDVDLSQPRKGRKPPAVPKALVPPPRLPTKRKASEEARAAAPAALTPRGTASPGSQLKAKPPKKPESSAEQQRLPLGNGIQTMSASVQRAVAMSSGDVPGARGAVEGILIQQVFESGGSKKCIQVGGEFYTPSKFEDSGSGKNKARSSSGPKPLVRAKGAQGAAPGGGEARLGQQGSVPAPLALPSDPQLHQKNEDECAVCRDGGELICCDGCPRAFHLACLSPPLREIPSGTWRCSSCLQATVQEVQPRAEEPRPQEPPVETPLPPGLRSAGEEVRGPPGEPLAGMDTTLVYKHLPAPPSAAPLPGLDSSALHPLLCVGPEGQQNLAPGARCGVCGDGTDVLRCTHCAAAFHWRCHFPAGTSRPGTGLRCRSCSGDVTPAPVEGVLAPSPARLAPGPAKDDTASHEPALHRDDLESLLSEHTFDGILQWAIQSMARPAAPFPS

variants of: B1; experiment: AIRE transcriptional activation functional score (insulin promoter-GFP; nonsense median 0, synonymous median 1) (normalised score); higher = higher AIRE activity (more reporter activation); conditions: with insulin promoter-GFP reporter in HEK293
Note: the reply should be a number with no unit written.

These solved cases illustrate the format of a correct answer.
* T151C | 0.915
* A500R | 0.915
* Q173F | 1.97
* L323S | 0.985
* K52P | -0.13
* S107V | 1
* A300E | 0.84
* M184Y | 0.481
* A205W | -0.461
* D288E | 0.565

Request the reported AIRE transcriptional activation functional score associated with `P542S`
1.07

And then `P56N` , what is it?
0.0217

Same thing, different variant: `E88M`
0.132
